Molecular target: GSK3b (GST-full length GSK3b) (Homo sapiens, UniProt P49841)
Construct: GST-full length GSK3b: [SignalChem G08-9G]; purchased SignalChem G08-9G
Sequence (P49841 whole entry): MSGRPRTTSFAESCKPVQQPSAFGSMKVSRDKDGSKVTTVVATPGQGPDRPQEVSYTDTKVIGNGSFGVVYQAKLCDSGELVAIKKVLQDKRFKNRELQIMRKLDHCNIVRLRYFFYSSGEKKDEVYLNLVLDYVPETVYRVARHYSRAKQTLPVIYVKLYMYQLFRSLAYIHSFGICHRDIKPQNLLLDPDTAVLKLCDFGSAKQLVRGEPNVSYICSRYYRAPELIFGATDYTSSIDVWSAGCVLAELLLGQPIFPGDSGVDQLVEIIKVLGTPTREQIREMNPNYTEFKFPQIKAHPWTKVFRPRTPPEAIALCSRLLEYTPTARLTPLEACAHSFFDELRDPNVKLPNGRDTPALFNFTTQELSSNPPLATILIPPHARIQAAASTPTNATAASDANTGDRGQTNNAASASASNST
Test: GSK3b TR-FRET kinase inhibition assay
Format: biochemical
Conditions: 100 μM ATP; read-out: GSK3b 100 μM ATP Average IC50
Description: TR-FRET assay was performed in a white, 384 well, low volume, flat bottom plate (Grenier). After a 30 minute preincubation in assay buffer with the indicated concentration of compound, the kinase activity was initiated by the addition of the substrates. […] After 60 min at room temperature the plate was read on Envision plate reader using Ex: 340 nm, Em: 615 nm and […]. The normalized 665/615 Signal ratio versus log compound concentration was analyzed by XLFIT to yield IC50 values.
MEASUREMENT LABEL: IC50

Before answering, review these 5 worked examples.
CCC1(c2ccccc2)C2=C(CC(C)(C)CC2=O)Nc2ncc(F)cc21 (single isomer, unassigned) [Compound 114A]
≤ 100 nM
CCC1(c2cccc(-c3c(C)nn(C)c3C)c2)C2=C(CC(C)(C)CC2=O)Nc2ncccc21 (single isomer, unassigned) [Compound 150A]
≤ 100 nM
CC1(C)CC(=O)C2=C(C1)Nc1ncc(C3CCC3)cc1C2(C)c1ccccc1 (single isomer, unassigned) [Compound 122A]
1000 to 5000 nM
CC(C)c1cnc2c(c1)C(C)(c1ccccc1)C1=C(CC(C)(C)CC1=O)N2 (single isomer, unassigned) [Compound 119A]
100 to 1000 nM
CC1(C)CC(=O)C2=C(C1)Nc1ncccc1C2(C)c1ccccc1 (single isomer, unassigned) [Compound 101A]
100 to 1000 nM

Field: IC50. Fill in for each record below.
1. CCC1(c2cccc(-c3ccnc4c3CCCC4)c2)C2=C(CC(C)(C)CC2=O)Nc2ncc(F)cc21 (single isomer, unassigned) [Compound 165A]
2. C=Cc1ccnc2c1C(C)(c1ccccc1)C1=C(CC(C)(C)CC1=O)N2 (single isomer, unassigned) [Compound 111A]
3. CCC1(c2ccccc2)C2=C(CC(C)(C)CC2=O)Nc2ncc(C(F)(F)F)cc21 (single isomer, unassigned) [Compound 133A]

["≤ 100 nM", "≤ 100 nM", "100 to 1000 nM"]

List the reported IC50 of each compound below.
1. CC(C)(C)Cc1ccnc2c1C(C)(c1ccccc1)C1=C(CC(C)(C)CC1=O)N2 (single isomer, unassigned) [Compound 130A]
2. CCC1(c2cccc(-c3cncn3C(C)C)c2)C2=C(CC(C)(C)CC2=O)Nc2ncccc21 (single isomer, unassigned) [Compound 149A]
3. CC1(C)CC(=O)C2=C(C1)Nc1ncc(C3CC3)cc1C2(C)c1ccccc1 (single isomer, unassigned) [Compound 117A]
4. CC1(C)CC(=O)C2=C(C1)Nc1ncccc1C2(C)c1ccccc1 (single isomer, unassigned) [Compound 101B]
5. CC(C)(C)Cc1cnc2c(c1)C(C)(c1ccccc1)C1=C(CC(C)(C)CC1=O)N2 (single isomer, unassigned) [Compound 129B]

100 to 1000 nM
≤ 100 nM
100 to 1000 nM
20000 to 60000 nM
20000 to 60000 nM

====

Target: GSK3b (GST-full length GSK3b) (Homo sapiens, UniProt P49841)
Construct: GST-full length GSK3b: [SignalChem G08-9G]; purchased SignalChem G08-9G
Assay: GSK3b TR-FRET kinase inhibition assay
Format: biochemical
Conditions: 2 μM ATP; read-out: GSK3β TR-FRET 2 μM ATP GMean IC50
pIC50: −log10 of the molar value.
MEASUREMENT LABEL: pIC50

Reference set (3 entries):
CCC1(c2ccccc2)C2=C(CC(C)(C)CC2=O)Nc2ncccc21 (single isomer, unassigned) [102 A]
≥ 7.00
CCC1(c2cccc(-c3ccnc4c3CCCC4)c2)C2=C(CC(C)(C)CC2=O)Nc2ncc(F)cc21 (single isomer, unassigned) [Compound 165A]
< 5.30
CCC1(c2cccc(-c3cncn3C(C)C)c2)C2=C(CC(C)(C)CC2=O)Nc2ncc(F)cc21 (single isomer, unassigned) [Compound 1038B]
6.00 to 7.00

Quick request: pIC50 for each listed item, please.
1. CCC1(c2cccc(-c3cncn3C(C)C)c2)C2=C(CC(C)(C)CC2=O)Nc2ncccc21 (single isomer, unassigned) [Compound 149A]
2. CCC1(c2cccc(-c3ccncc3C)c2)C2=C(CC(C)(C)CC2=O)Nc2ncccc21 (single isomer, unassigned) [Compound 1020B]

1: ≥ 7.00; 2: ≥ 7.00
